experiment: 14C assay: 14CO2 capture from [14C]-carboxyl-labeled dicamba with IPTG-induced recombinant E. coli cells; settings: IPTG-induced recombinant E. coli cells; 14CO2 from [14C]-carboxyl-labeled dicamba

{"columns": ["molecule", "Dicamba Decarboxylase Activity"],
 "data": [
  ["9 (protein, listed as Octadecabacter antarcticus) MATPKITFEEHFMAPGFEKHSEAFLKLIPRDQAEILTRRLGDFDGERIETMDRGGITRSIISLTGPGTQGEAVEKAVSAAQGANDFLAEKISKKPDRLGGLATLPMHDPDAAARELNRAVNDLGLQGCLVNTHTHGAYYEGTDYDPFWAEVEKLGVPFYLHPSNAYVTPHVLGGMPVLQGATWGWGVETGSHALRILFGGVFDRFPDVKLVLGHMGEALPFLRWRYDSRFGAYPMGVSLDRAPSAYFGSNILITTSGVCSHPSLIGAIGEMGADAVMFSVDYPYEDTDLAVEFIETAPLEDATRVKICHDNAARLFGMPTLAAKEGA", "No"],
  ["31 (protein, listed as Agrobacterium sp.) MAQGKVALEEHFAIPETLQDSAGFVPGDYWKELQHRLLDIQDTRLKLMDAHGIETMILSLNAPAVQAIPDKTKAIEIARRANDVLAEECAKRPDRFLAFAALPLQDPDAATEELQRCVNDLGFVGALVNGFSQEGDGQTPLYYDLPQYRPFWGEVEKLDVPFYLHPRNPLPQDSRIYDGHPWLLGPTWAFAQETAVHALRLMASGLFDEHPRLNIILGHMGEGLPYMMWRIDHRNAWVKLPPRYPAKRRFMDYFNENFHITTSGNFRTQTLIDAILEIGADRILFSTDWPFENIDHASDWFNATSIAEADRVKIGRTNARRLFKLDGA", "High"]
]}
